Value source: patent US7767716B2

measured-endpoint: melting point

What does the data say about its melting point? Entry: CCc1ccc(C(=O)NNC(=O)Cc2cccc(O)c2)cc1 155 to 156 °C

What does the data say about its melting point? Entry: Cc1cc(O)c(C)c(O)c1C(=O)NNC(=O)Cc1cccc(O)c1 193 to 194 °C

What does the data say about its melting point? Entry: O=C(Cc1cccc(O)c1)NNC(=O)c1cc(Cl)c(O)cc1C(F)(F)F 200 to 202 °C

What does the data say about its melting point? Entry: O=C(Cc1cccc(O)c1)NNC(=O)c1c(O)cc(O)cc1O 237 to 238 °C

What does the data say about its melting point? Entry: O=C(Cc1cccc(O)c1)NNC(=O)c1cccc(Cl)c1 183 to 184 °C

What does the data say about its melting point? Entry: O=C(Cc1cccc(O)c1)NNC(=O)c1c(F)cccc1F 191 to 192 °C

What does the data say about its melting point? Entry: O=C(Cc1cccc(O)c1)NNC(=O)c1cccc(C(F)(F)F)c1 161 to 162 °C

What does the data say about its melting point? Entry: CCc1cc(O)cc(O)c1C(=O)NNC(=O)Cc1cccc(O)c1 251 °C

What does the data say about its melting point? Entry: O=C(Cc1cccc(O)c1)NNC(=O)c1c(Br)cc(OCc2ccccc2)cc1OCc1ccccc1 194 to 195 °C

What does the data say about its melting point? Entry: CC(C)(C)c1ccc(C(=O)NNC(=O)Cc2cccc(O)c2)cc1 183 to 184 °C

What does the data say about its melting point? Entry: O=C(Cc1cccc(O)c1)NNC(=O)c1ccc(O)cc1O 233 to 235 °C

What does the data say about its melting point? Entry: O=C(Cc1cccc(O)c1)NNC(=O)c1ccc(OCc2ccccc2)cc1Cl 162 to 164 °C

What does the data say about its melting point? Entry: COc1ccc(C(=O)NNC(=O)Cc2cccc(O)c2)c(OC)c1 197 to 198 °C

What does the data say about its melting point? Entry: O=C(Cc1cccc(O)c1)NNC(=O)c1cccc(OC(F)(F)F)c1 256 to 257 °C

What does the data say about its melting point? Entry: O=C(Cc1cccc(O)c1)NNC(=O)c1ccccc1I 190 to 191 °C

What does the data say about its melting point? Entry: COc1ccccc1C(=O)NNC(=O)Cc1cccc(O)c1 181 to 182 °C

What does the data say about its melting point? Entry: O=C(Cc1cccc(O)c1)NNC(=O)c1ccc(Cl)cc1 223 °C

What does the data say about its melting point? Entry: O=C(Cc1cccc(O)c1)NNC(=O)c1ccc(SC(F)(F)F)cc1 165 to 166 °C

What does the data say about its melting point? Entry: O=C(Cc1cccc(O)c1)NNC(=O)c1ccc(F)cc1 182 to 183 °C
